tested_on: KRAS G12V binding to BRAF (Homo sapiens (Human), UniProt P01116+P62937, G12V)
Sequence (P01116-2 other isoform, or with tags, fused parts or gaps G12V): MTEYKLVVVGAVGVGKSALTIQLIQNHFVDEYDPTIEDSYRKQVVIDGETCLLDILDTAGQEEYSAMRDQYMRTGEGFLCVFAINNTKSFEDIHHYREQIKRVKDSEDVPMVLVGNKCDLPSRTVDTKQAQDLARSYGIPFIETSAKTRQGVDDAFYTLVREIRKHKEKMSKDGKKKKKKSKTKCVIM
Sequence (P62937 whole entry): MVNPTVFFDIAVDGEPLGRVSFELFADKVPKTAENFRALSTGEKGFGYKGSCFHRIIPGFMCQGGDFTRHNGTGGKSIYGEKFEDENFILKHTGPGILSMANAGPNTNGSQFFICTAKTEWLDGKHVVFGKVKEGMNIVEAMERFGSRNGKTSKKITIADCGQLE
test_description: KRAS-BRAF with CYPA (500 nM) interaction assay (TR-FRET), G12V
test_context: GMPPNP loaded 6His-KRAS, GST-BRAF RBD, 3 hours
experimental_endpoint: IC50 (µM)
Only the number, expressed in µM, is required.

Example entries begin here.
{"compound": "CCn1c(-c2cc(N3CCOCC3)cnc2[C@H](C)OC)c2c3cc(c(F)cc31)-c1csc(n1)C[C@H](NC(=O)[C@H]1C[C@@H]1C)C(=O)N1CCC[C@H](N1)C(=O)OCC(C)(C)C2 (atropisomer, axis not shown; (M))", "tested_on": "KRAS G12V binding to BRAF (Homo sapiens (Human), UniProt P01116+P62937, G12V)", "IC50, µM": 0.143}
{"compound": "CCn1c(-c2cc(N3CCN(C)CC3)cnc2[C@H](C)OC)c2c3cc(c(F)cc31)-c1csc(n1)C[C@H](NC(=O)[C@H]1[C@@H]3COC[C@@H]31)C(=O)N1CCC[C@H](N1)C(=O)OCC(C)(C)C2 (atropisomer, axis not shown; (M))", "tested_on": "KRAS G12V binding to BRAF (Homo sapiens (Human), UniProt P01116+P62937, G12V)", "IC50, µM": 0.174}
{"compound": "CO[C@@H](C)c1ncc(N2CCN(C)CC2)cc1-c1c2c3cc(c(F)cc3n1CC(F)(F)F)-c1csc(n1)C[C@H](NC(=O)[C@H]1C[C@@H]1C)C(=O)N1CCC[C@H](N1)C(=O)OCC(C)(C)C2 (atropisomer, axis not shown; (M))", "tested_on": "KRAS G12V binding to BRAF (Homo sapiens (Human), UniProt P01116+P62937, G12V)", "IC50, µM": 0.095}
{"compound": "CO[C@@H](C)c1ncc(N2CCN(C)CC2)cc1C1=C2CC(C)(C)COC(=O)[C@@H]3CCCN(N3)C(=O)[C@@H](NC(=O)[C@H]3C[C@@H]3C)Cc3nc(cs3)-c3ccc(c2c3)C1 (single isomer, unassigned) [Example A122, reference compound]", "tested_on": "KRAS G12V binding to BRAF (Homo sapiens (Human), UniProt P01116+P62937, G12V)", "IC50, µM": 0.025}
{"compound": "CO[C@@H](C)c1ncc(N2CCN(CC(F)(F)F)CC2)cc1-c1c2c3cc(c(F)cc3n1CC(F)(F)F)-c1csc(n1)C[C@H](NC(=O)[C@H]1C[C@@H]1C)C(=O)N1CCC[C@H](N1)C(=O)OCC(C)(C)C2 (atropisomer, axis not shown; (M))", "tested_on": "KRAS G12V binding to BRAF (Homo sapiens (Human), UniProt P01116+P62937, G12V)", "IC50, µM": 0.171}

Consider the record given below.
Exam item: Please report the recorded IC50 for CCn1c(-c2cc(N3CCN(CC(F)(F)F)CC3)cnc2[C@H](C)OC)c2c3cc(c(F)cc31)-c1csc(n1)C[C@H](NC(=O)[C@H]1C[C@@H]1C)C(=O)N1CCC[C@H](N1)C(=O)OCC(C)(C)C2 (atropisomer, axis not shown; (M)) .
Marked response: 0.697
